B1: MYL5 (parent)
chain: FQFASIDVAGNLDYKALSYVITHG

Variants of: B1
Experiment: protein stability index of a GFP-peptide fusion (GPS, HEK-293T) (PSI 1-6); higher = more stable;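 further: lentivirally expressed fusions sorted by FACS into six bins by GFP to DsRed ratio, PSI derived from sequencing read proportions per bin multiplied by bin number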
Settings: c terminus: a fixed tail appended
MEASUREMENT KIND: protein stability index
Format: numeric value only, no unit, no commentary.

Please review the entries below; each comes with its answer.
F3K | 1.43
Y19M | 2.44
I21T | 1.54

Query :: Which protein stability index value belongs to `V8S` ?
Result :: 2.09

Query :: Proceed to `A16P`
Result :: 5.11

Query :: Follow-up entry: `S5K`
Result :: 2.4

Query :: What about `D7G` ?
Result :: 2.38

Query :: Also `Y14A` ?
Result :: 1.82

Query :: What would you report for `A16V` ?
Result :: 3.37

Query :: Same lookup for `G10N` , please.
Result :: 2.84

Query :: `G24L` , same question.
Result :: 3.92

Query :: Same read-out for `Q2D` ?
Result :: 4.24

Query :: Request: `Y19K`
Result :: 1.06
